Source: ChEMBL document CHEMBL1130122

- target_of_assay: Cytosolic phospholipase A2 (Bos taurus, UniProt A4IFJ5)
- measurement_protocol: Inhibitory activity against cPLA2 (cytosolic Phospholipase A2) by measuring the calcium ionophore A-23,187-induced arachidonic acid release from bovine platelets
reported_metric: IC50 (µM)
The reply should contain only the number, in µM.

chemical_smiles | IC50 / µM
CCCCCCCCCCOc1cccc(CC(=O)c2c(C(=O)O)n(C)c3ccccc23)c1 | 10
CCCCCCCCCCCC(=O)c1c(C(=O)O)n(Cc2cccc(CCC(=O)O)c2)c2ccccc12 | 4.3
CCCCCCCCCCCC(=O)c1c(C(=O)O)n(C)c2ccc(OC)cc12 | 8
CCCCCCCCCCCC(=O)c1c(C(=O)O)n(C)c2cccc(Cl)c12 | 9
CCCCCCCCCCCC(=O)c1c(C(=O)O)n(CCOc2cccc(C(=O)O)c2)c2ccccc12 | 1.9

Input line: Let me know recorded IC50 for "CCCCCCCCCCCC(=O)c1c(C(=O)O)n(CCCCCCCC(=O)O)c2ccccc12" , thanks.
Output line: 1.6

Input line: Quick one: give measured IC50 for "CCCCCCCCCCCCOc1cccc(C(=O)c2c(C(=O)O)n(C)c3ccccc23)c1"
Output line: 7

Input line: Respond only with IC50 recorded for "CCCCCCCCCCOc1ccc(CCC(=O)c2c(C(=O)O)n(C)c3ccccc23)cc1"
Output line: 10

Input line: Please give the documented IC50 of "CCCCCCCCCCCC(=O)c1c(C(=O)O)n(CCCCCC(=O)O)c2ccccc12"
Output line: 8

Input line: Return IC50 (reported value) for this compound: "CCCCCCCCCCCCCC(=O)c1c(C(=O)O)n(C)c2ccccc12"
Output line: 8

---

- target_of_assay: Cytosolic phospholipase A2 (Bos taurus, UniProt A4IFJ5)
- Sequence (A4IFJ5 whole entry): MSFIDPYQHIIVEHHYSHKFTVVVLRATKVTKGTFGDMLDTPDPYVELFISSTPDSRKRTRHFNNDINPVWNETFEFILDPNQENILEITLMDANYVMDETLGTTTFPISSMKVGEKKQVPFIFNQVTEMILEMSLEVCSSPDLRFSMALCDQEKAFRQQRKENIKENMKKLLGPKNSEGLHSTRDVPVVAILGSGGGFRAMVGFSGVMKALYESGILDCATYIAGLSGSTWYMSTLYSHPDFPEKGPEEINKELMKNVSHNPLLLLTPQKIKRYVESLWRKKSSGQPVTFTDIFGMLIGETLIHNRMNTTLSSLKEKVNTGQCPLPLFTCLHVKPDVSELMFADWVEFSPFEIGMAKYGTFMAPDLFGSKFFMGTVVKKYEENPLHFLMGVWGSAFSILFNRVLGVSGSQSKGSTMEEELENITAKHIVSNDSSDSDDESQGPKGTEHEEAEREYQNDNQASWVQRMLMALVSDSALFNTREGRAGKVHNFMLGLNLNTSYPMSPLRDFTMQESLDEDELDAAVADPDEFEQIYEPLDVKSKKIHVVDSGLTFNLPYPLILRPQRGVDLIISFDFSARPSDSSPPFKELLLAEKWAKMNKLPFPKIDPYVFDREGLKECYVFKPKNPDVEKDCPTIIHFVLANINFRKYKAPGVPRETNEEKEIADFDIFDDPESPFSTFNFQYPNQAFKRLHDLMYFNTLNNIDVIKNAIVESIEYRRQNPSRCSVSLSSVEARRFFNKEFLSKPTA
- measurement_protocol: Inhibitory activity against cPLA2 (cytosolic Phospholipase A2) by measuring the calcium ionophore A-23,187-induced arachidonic acid release from bovine platelets
reported_metric: pIC50
On this scale, pIC50 is minus log10 of a concentration expressed in M (mol/L).

compound | val
CCCCCCCCCCCCCCCCNC(=O)C1CCCN1 (stereo unspecified) | 4.89
CCCCCCCCCCCC(=O)c1c(C(=O)O)n(CCCCCCCCC(=O)O)c2ccccc12 | 5.80
CCCCCCCCCCOc1ccccc1CCC(=O)c1c(C(=O)O)n(C)c2ccccc12 | 4.47
CCCCCCCCCCCC(=O)c1c(C(=O)O)n(C)c2ccc([N+](=O)[O-])cc12 | 5.00
CCCCCCCCCCOc1cccc(CCC(=O)c2c(C(=O)O)n(C)c3ccccc23)c1 | 4.96
CCCCCCCCCCCCCCCCCC(=O)c1c(C(=O)O)n(CCCCCCCC(=O)O)c2ccccc12 | 5.85
CCCCCCCCCCOc1ccc(CC(=O)c2c(C(=O)O)n(C)c3ccccc23)cc1 | 5.15
CCCCCCCCCCCC(=O)c1c(C(=O)O)n(CCCCCCCCCCC(=O)O)c2ccccc12 | 5.85
CCCCC/C=C\C/C=C\C/C=C\C/C=C\CCCC(=O)C(F)(F)F | 4.96
CCCCCCCCCCCC(=O)c1c(C(=O)O)n(CCCCCCC(=O)O)c2ccccc12 | 5.52

Input line: Give the reported pIC50 for this compound. "CCCCCCCCCCCC(=O)c1c(C(=O)O)n(C)c2cc(Cl)ccc12"
Output line: 5.05

Input line: Return reported pIC50. Input compound: "CCCCCCCCCCCC(=O)c1c(C(=O)O)n(C)c2ccc(F)cc12"
Output line: 4.96

Input line: Kindly indicate its recorded pIC50. Item: "CCCCCCCCCCCCOc1ccc(C(=O)c2c(C(=O)O)n(C)c3ccccc23)cc1"
Output line: 5.15

Input line: Give pIC50 for the following compound: "CCCCCCCCCCCC(=O)c1c(C)c(C)n(C)c1C(=O)O"
Output line: 4.96

Input line: Fill in reported pIC50 for this entry: "CCCCCCCCCCCC(=O)c1c(C(=O)O)n(CCOc2ccc(C(=O)O)cc2)c2ccccc12"
Output line: 6.30

Input line: Assign pIC50 to the following record: "CCCCCCCCCCCC(=O)c1c(C(=O)O)n(Cc2ccc(CCC(=O)O)cc2)c2ccccc12"
Output line: 5.40

Input line: Kindly indicate its recorded pIC50. Item: "CCCCCCCCCCCC(=O)c1c(C(=O)O)n(Cc2ccc(/C=C/C(=O)O)cc2)c2ccccc12"
Output line: 5.39

Input line: Quote pIC50 reported for "CCCCCCCCCCCC(=O)c1c(C(=O)O)n(C)c2ccccc12" please.
Output line: 5.10
